test: doxorubicin toxicity protection in MRP-1 cells – H69AR cells, CellTiter-Glo, duplicate, MRP-1 activator project, pilot screen (AID 807); settings: H69AR viability with doxorubicin, CellTiter-Glo luminescence; at 10 µM; hits give high values;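 also: compound pretreatment 18-22 h then 72 h combined with doxorubicin; 0% = doxorubicin alone and 100% = vehicle without doxorubicin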
Calls of active or inactive are those of the source.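 The calls were made as follows: active = viability increase at or above a cutoff of the median across tested compounds plus 3 SD (cut at about 8.5% in these data, passing the limit was not always enough); inconclusive = some gains above the cutoff, reason not given; inactive = the rest.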
viability increase reference

1. Cc1ccccc1-n1nc2c(c1NC(=O)c1cccc(F)c1)CS(=O)C2 (stereo unspecified) :: 0.96% (inactive)
2. c1csc(CCNc2ncnc3sc4c(c23)CCC4)c1 :: -5.93% (inactive)
3. O=S(=O)(NC1=NCCCCC1)c1cccs1 :: -0.2% (inactive)
4. CC(C)c1nnc(NC(=O)C2CCCCC2)s1 :: -0.65% (inactive)
5. CCCNC(=O)C1CCN(S(=O)(=O)c2ccc3nc4c(c(C(=O)O)c3c2)CCCCC4)CC1 :: 1.14% (inactive)
6. Cc1cc(Oc2ccccc2)nc2ccc(O)cc12 :: -5.89% (inactive)
7. CC(=O)Nc1ccc(S(=O)(=O)NCc2ccc3c(c2)cc(C)n3C)cc1 :: 0.21% (inactive)
8. CCn1cc(C(=O)NCCCOC)c(=O)c2cc(S(=O)(=O)N(C)C)ccc21 :: -2.52% (inactive)
9. CCOC(=O)c1ccccc1NC(=O)c1ccc2c(=O)n3c(nc2c1)CCCCC3 :: -1.73% (inactive)
10. CC1CC(NC(=O)c2cnc3n(c2=O)CCS3)CC(C)(C)C1 (stereo unspecified) :: -0.41% (inactive)

Query molecule follows.
Data point: `COCCCNC(=O)CSc1ccc(Cl)cc1` ; viability increase = -1.7% (inactive)
